# Target System: T1, RSV postfusion F (postF), subtype A (respiratory syncytial virus subtype A, UniProt P03420 26-513)
# T1 construct: also called Postfusion subtype A; F deltaFP
# Procedure Summary: BLI

Binder	binding result
ADI-22767 (antibody, V domains shown, full-length IgG) VH: QVQLVESGGGLVKPGGSLRLSCAASGFTFSSYSMNWVRQAPGKGLEWVSSISSSSSYIYYADSVKGRFTISRDNAKNSLYLQMNSLRAEDTAVYYCAREANWGVAFDIWGQGTMVTVSS VL: QSVVTQPPSVSGAPGQRVTISCTGSSSNIGAGYDVHWYQQLPGTAPKLLIYGNSNRPSGVPDRFSGSKSGTSASLAITGLQAEDEADYYCQSYDSSLSYVFGTGTKVTVL	no binding
ADI-14333 (antibody, V domains shown, full-length IgG; also called Ab 1) VH: EVQLVETGGGLVKPGGSLRLSCADSGFPFSSYSMHWVRQAPGKGLEWVASISSSSSFINYADSVKGRFTISRDNAKNSLYLQMNSLRAEDTAVYFCAREAACGGDCYGYYFDYWGQGTLVTVSS VL: QSVVTQPPSASGAPGQRVTISCTGSSSNIGAGYDVHWYQQLPGTAPKVLISGNSNRPSGVPARFSGSKSGTSASLAITGLQAEDEADYYCQSYDSSLSGSVFGGGTQLTVL	no binding
ADI-22765 (antibody, V domains shown, full-length IgG) VH: EVQLVESGGGLVKPGGSLRLSCAASGFTFSSYSMNWVRQAPGKGLEWVSSISSSSSYIYYADSVKGRFTISRDNAKNSLYLQMNSLRAEDTAVYYCARDRGDGYNYDYWGQGTLVTVSS VL: QPVLTQPPSVSGAPGQRVTISCTGSSSNIGAGYDVHWYQQLPGTAPKLLIYGNSNRPSGVPDRFSGSKSGTSASLAITGLQAEDEADYYCQSYDSSLSVVFGGGTKVTVL	no binding
